# targetOrSystem: Galectin-1 (Homo sapiens (Human))
# procedureSummary: Fluorescence anisotropy assay, inhibition of galectin / fluorescein tagged saccharide probe interaction
# Type: binding
assayMetric: Kd (nM)
A number alone suffices; assume nM.

# input Provide Kd, tested on Galectin-1 (Homo sapiens (Human)), for OC[C@H]1O[C@H](Sc2cnc(C(F)(F)F)c(Br)c2)[C@H](O)[C@@H](n2cc(-c3nc(Cl)c(Cl)s3)nn2)[C@H]1O [Example 29] .
# output 390

# input Provide Kd, tested on Galectin-1 (Homo sapiens (Human)), for OC[C@H]1O[C@H](Sc2cc(Cl)c(Cl)cc2F)[C@H](O)[C@@H](n2cc(-c3csc(O)n3)nn2)[C@H]1O [Example 31] .
# output 13

# input Provide Kd, tested on Galectin-1 (Homo sapiens (Human)), for OC[C@H]1O[C@H](Sc2cnc(C(F)(F)F)c(Cl)c2)[C@H](O)[C@@H](n2cc(-c3csc(O)n3)nn2)[C@H]1O [Example 17] .
# output 28

# input Provide Kd, tested on Galectin-1 (Homo sapiens (Human)), for CN(C)C(=O)c1ncc(Cl)cc1S[C@H]1OC(CO)[C@H](O)[C@H](n2cc(-c3csc(O)n3)nn2)C1O (stereo partly shown) [Example 33] .
# output 54

* * *

# targetOrSystem: Galectin-1 (Homo sapiens (Human), UniProt P09382)
# Sequence (P09382 whole entry): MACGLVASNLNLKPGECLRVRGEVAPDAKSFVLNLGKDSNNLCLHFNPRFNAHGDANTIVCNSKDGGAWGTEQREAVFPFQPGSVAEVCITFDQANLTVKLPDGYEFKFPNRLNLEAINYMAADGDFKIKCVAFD
# procedureSummary: Fluorescence anisotropy assay, inhibition of galectin / fluorescein tagged saccharide probe interaction
# Type: binding
Cut-off 70 nM on Kd: below means met, at or above means not met.

# input Does N#Cc1ncc(Br)cc1S[C@H]1O[C@H](CO)[C@H](O)[C@H](n2cc(-c3nc(Cl)cs3)nn2)[C@H]1O [Example 4] have Kd strictly under 70 nM?
# output not met

* * *

Recorded Kd by entry
# targetOrSystem: Galectin-1 (Homo sapiens (Human))
# procedureSummary: Fluorescence anisotropy assay, inhibition of galectin / fluorescein tagged saccharide probe interaction
# Type: binding
A number alone suffices; assume nM.

# input Read the entry OC[C@H]1O[C@H](Sc2ccc(Cl)c(Cl)c2)[C@H](O)[C@@H](n2cc(-c3csc(O)n3)nn2)[C@H]1O and write its reported Kd.
# output 58

---
# input Read the entry N#Cc1ncc(S[C@H]2O[C@H](CO)[C@H](O)[C@H](n3cc(-c4nc(Cl)cs4)nn3)[C@H]2O)cc1Br and write its reported Kd.
# output 68

# input Read the entry OC[C@H]1O[C@H](Sc2cc(Cl)c(Cl)c(Cl)c2)[C@H](O)[C@@H](n2cc(-c3csc(O)n3)nn2)[C@H]1O and write its reported Kd.
# output 56

# input Read the entry N#Cc1ncc(S[C@H]2O[C@H](CO)[C@H](O)[C@H](n3cc(-c4nc(Cl)cs4)nn3)[C@H]2O)cc1Cl and write its reported Kd.
# output 95

# input Read the entry OC[C@H]1O[C@H](Sc2cnc(C(F)(F)F)c(Br)c2)[C@H](O)[C@@H](n2cc(-c3nc(Cl)cs3)nn2)[C@H]1O and write its reported Kd.
# output 110

# input Read the entry OC[C@H]1O[C@H](Sc2cnc(C(F)(F)F)c(Br)c2)[C@H](O)[C@@H](n2cc(-c3nc(Br)cs3)nn2)[C@H]1O and write its reported Kd.
# output 160
